- Tested on: HeLa
- ASSAY_OVERVIEW: Antiproliferative activity against human HeLa cells expressing beta3-tubulin by SRB assay
- Format: functional, cell-based
QUANTITY_KIND: pIC50
Hey, just a heads up that pIC50 is the negative log base 10 of the concentration in molar.

Value lookup for pIC50; key = CSc1ccc(N(C)c2nc(N)nc3[nH]c4ccccc4c23)cc1 7.11

Item: COc1ccc(N(C)c2nc(C)nc3[nH]c4ccccc4c23)cc1 7.50

Could you do the same for COc1ccc(N(C)c2ncnc3[nH]c4ccccc4c23)cc1 , please? 7.00

COc1ccc2c(c1)CCCN2c1nc(N)nc2[nH]c3ccccc3c12 ? 7.06
